Experimental target: Follistatin (Homo sapiens) (UniProt P19883)
Sequence (P19883 whole entry, looked up): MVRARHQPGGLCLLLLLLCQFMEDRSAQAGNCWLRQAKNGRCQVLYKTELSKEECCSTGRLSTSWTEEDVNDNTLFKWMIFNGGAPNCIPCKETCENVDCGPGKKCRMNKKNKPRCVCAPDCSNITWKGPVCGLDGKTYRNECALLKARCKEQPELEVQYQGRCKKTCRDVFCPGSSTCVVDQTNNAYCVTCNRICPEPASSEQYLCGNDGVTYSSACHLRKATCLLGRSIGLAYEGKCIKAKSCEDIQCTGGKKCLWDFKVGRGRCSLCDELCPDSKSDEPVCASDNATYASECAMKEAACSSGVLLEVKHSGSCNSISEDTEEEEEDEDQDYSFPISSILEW
Assay notes: follistatin binders on small-molecule microarrays, primary screen, biochemical, small-molecule microarray, 635/667 nm fluorescence (AID 1132)
Assay setup: FST binding, 635 nm fluorescence, higher = more signal
Endpoint name: composite z-score
Please respond with just the number, no unit label.

O=C1O[C@@H](c2ccccc2)[C@@H](c2ccccc2)N2[C@@H](c3ccc(OCCO)cc3)[C@]3(C(=O)Nc4ccccc43)[C@@H](C(=O)N3CCN(c4ncccn4)CC3)[C@H]12 ... 1.28
C=CCC(OC(C)=O)[C@@H]1[C@@H](N(Cc2cc3ccccc3o2)C(=O)Cc2ccc(F)cc2)c2cc(OCCCO)ccc2N1C(=O)Cc1ccc(OC)cc1 (some centres undefined) ... 0.354
CO[C@@H]1COC(=O)[C@@H]2CCCN2C(=O)[C@@H](C)COC(=O)[C@H](COCc2ccccc2)NC(=O)CC=C[C@H]1C ... 0.421

# ---- query compound ----
Tell me its composite z-score given Cc1ccc(F)cc1S(=O)(=O)N[C@@H]1CCN(Cc2ccc(CC(C)C)cc2)C1 as the entry.
0.111

###

Experimental target: Fibroblast growth factor 2 (Homo sapiens) (UniProt P09038)
Sequence (P09038 whole entry, looked up): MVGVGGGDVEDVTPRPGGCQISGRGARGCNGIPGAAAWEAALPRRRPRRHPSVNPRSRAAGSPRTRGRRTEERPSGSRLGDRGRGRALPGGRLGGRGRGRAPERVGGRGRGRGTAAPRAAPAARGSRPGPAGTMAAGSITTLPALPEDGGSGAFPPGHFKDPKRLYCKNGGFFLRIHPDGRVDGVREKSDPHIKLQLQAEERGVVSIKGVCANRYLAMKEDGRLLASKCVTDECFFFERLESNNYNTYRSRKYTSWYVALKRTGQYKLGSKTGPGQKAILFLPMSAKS
Assay notes: FGF2 binders on small-molecule microarrays, primary screen, biochemical, small-molecule microarray, 635/667 nm fluorescence (AID 1133)
Assay setup: small-molecule microarray binding, FGF2, fluorescence 635/667; higher = more signal
Rule: True for composite z-score not less than 1, False for anything less.

Completed entries (count: 5):
CCOC(=O)[C@H](CC(C)C)NC(=O)CCC1CC(OC(=O)NCc2cccc3ccccc23)CC2(CCCC(COC(=O)NCCN3CCOCC3)O2)O1 (stereo partly specified) ... False
C[C@H]1CC[C@@H](C(=O)O)N[C@@H]1c1ccc(C#CCN(C)C)cc1 ... False
CN(C)C(=O)[C@@]1(Cc2ccccc2)N=C(c2ccc(OCCCO)cc2)O[C@H]1c1ccccc1CN=[N+]=[N-] ... True
CC=CC1=C(CO)[C@H](O)[C@H]2O[C@H]2[C@H]1O ... True
CCOC(=O)[C@H](Cc1ccccc1)NC(=O)CCC1CC(OC(=O)NCc2ccc3c(c2)OCO3)CC2(CCCC(COC(=O)NCC(c3ccccc3)c3ccccc3)O2)O1 (stereo partly specified) ... False

Exam item: decide whether the reported composite z-score for COC(=O)CC=C[C@H](C)[C@@H](OCc1ccccc1Br)C(C)C is at least 1.
False

Exam item: decide whether the reported composite z-score for CC(C)C[C@@H]1NC(=O)[C@H]2C[C@@H](C(=O)O)[C@@H](c3ccc(O)cc3)N2C1=O is at least 1.
False

Exam item: decide whether the reported composite z-score for COC(=O)CC=C[C@@H](C)[C@@H](C=NO[C@H](C)c1cn([C@@H]2COC[C@H]2O)nn1)OC is at least 1.
False

Exam item: decide whether the reported composite z-score for C=C(COC)/C(=C/C[C@H](OC(=O)c1ccncc1)c1ccc(CO)o1)c1cc(C(=O)OC)ccc1OC is at least 1.
True

Exam item: decide whether the reported composite z-score for C#CCCCON=C1C[C@@H](O)[C@@H](O)[C@@H]2[C@@H]3C(=O)N(CCC(=O)OCC)C(=O)[C@@H]3CC[C@@H]12 is at least 1.
False

Exam item: decide whether the reported composite z-score for CN1C(=O)C2C=CC(C(O)C(c3ccccc3)c3ccccc3)N(NC(=O)OC(C)(C)C)C2C1=O (stereo unspecified) is at least 1.
False

Exam item: decide whether the reported composite z-score for COc1ccc([Si](C)(C)[C@H]2[C@H](CC(=O)N3CCC[C@H]3CO)O[C@@]3(C(=O)N(Cc4cccc(N5C(=O)COc6ccccc65)c4)c4ccccc43)[C@@H]2C)cc1 is at least 1.
True

###

Assay notes: basal RPMI8226 mitochondrial membrane potential changes, profiling panel, cell-based, JC-1 fluorescence, 24 h, 100 nL compound (AID 1169); further: test concentration not given here
Assay setup: RPMI8226 myeloma, JC-1 mitochondrial potential fluorescence, higher = more signal
Overview of reported z-score across a group of compounds:
Please respond with just the number, no unit label.

CCOC(=O)NN=C1C[C@@H](O)[C@@H](O)[C@@H]2[C@@H]3C(=O)N(CC)C(=O)[C@@H]3CC[C@@H]12 ... -0.151
C=CCOC(=O)[C@H]1[C@@H]2C(=O)O[C@@H](c3ccccc3)[C@@H](c3ccccc3)N2[C@@H](c2ccc(OCCOC(=O)[C@H]3C[C@H]4C(=O)N5CCC[C@H]5C(=O)N4[C@H]3c3cccc(OCCO)c3)cc2)[C@]12C(=O)Nc1ccc(I)cc12 ... -0.855
CC(C)c1ccc(NN2C(C(O)c3ccc4c(c3)OCO4)C=CC3C(=O)N(c4ccccc4)C(=O)C32)cc1 (configuration not stated) ... 0.337
CCOC(=O)CCN1C(=O)[C@H]2[C@H]3[C@H](O)C=CC(=O)[C@@H]3CC[C@H]2C1=O ... 0.203
CC(C)CON=C1C[C@@H](O)[C@@H](O)[C@@H]2[C@@H]3C(=O)N([C@@H](C)c4ccccc4)C(=O)[C@@H]3CC[C@H]12 ... 0.53
O=C1[C@H]2[C@H]3[C@H](O)[C@H](O)CC(=NO[C@@H]4O[C@H](CO)[C@@H](O)[C@H](O)[C@H]4O)[C@H]3CC[C@H]2C(=O)N1Cc1ccccc1 ... 0.42
COc1ccccc1CN1C(=O)c2ccccc2[C@@]2(Cc3ccccc3N(C(C)C)C2=O)[C@@H]1c1ccc(CO)cc1 ... 0.563
CCOC(=O)[C@H](Cc1ccccc1)NC(=O)CCC1CC(OC(=O)NCc2ccc3c(c2)OCO3)CC2(CCCC(COC(=O)NCc3cccc(C(F)(F)F)c3)O2)O1 (some centres not stated) ... 0.918

Tell me its z-score given C=CCC(OC(C)=O)[C@@H]1[C@@H](N(Cc2cc3ccccc3o2)C(=O)Cc2ccc(F)cc2)c2cc(OCCCO)ccc2N1C(=O)Cc1ccc(OC)cc1 (some centres not stated) as the entry.
0.774

Tell me its z-score given CC(C)=C1C(=O)C(c2ccccc2)=C2CN3C(=O)N(CCc4ccccc4)C(=O)[C@]3(Cc3ccc(F)cc3)[C@H]21 as the entry.
-0.0557

Tell me its z-score given COC(=O)[C@H](C)NC(=O)CCC1CC(OC(=O)NCCc2ccc(F)cc2)CC2(CCCC(COC(=O)NCC(c3ccccc3)c3ccccc3)O2)O1 (some centres not stated) as the entry.
-0.379

Tell me its z-score given COCCCNC(=O)[C@]1(CCC(=O)OC(C)(C)C)N=C(c2ccc(OCCCO)cc2)O[C@@H]1c1ccccc1N=[N+]=[N-] as the entry.
-0.69

Tell me its z-score given CCOC(=O)[C@H](Cc1ccccc1)NC(=O)CCC1CC(OC(=O)NCc2ccc3c(c2)OCO3)CC2(CCCC(COC(=O)NCc3ccccc3)O2)O1 (some centres not stated) as the entry.
0.0886

Tell me its z-score given CC(C)[C@H](NC(=O)OC(C)(C)C)[C@@H](O)CC(=O)OC(C)(C)C as the entry.
0.62

Tell me its z-score given COc1ccc(O[C@H]2C=C[C@@H](c3ccccc3)O[C@@H]2COC(=O)CCC(C)=NOCC[C@@H]2C=C[C@H](OC(C)=O)[C@@H](COC(C)=O)O2)cc1 as the entry.
-0.55

Tell me its z-score given O=C(NN=C1C[C@@H](O)[C@@H](O)[C@@H]2[C@@H]3C(=O)N(c4cccc(Oc5ccccc5)c4)C(=O)[C@@H]3CC[C@@H]12)OCc1ccccc1 as the entry.
0.682

Tell me its z-score given CC(C)=CCCC(C)=CCON=C1[C@H]2CCn3c(=O)n(Cc4cc5c(cc4Cl)OCO5)c(=O)n3[C@H]2[C@H](O)[C@@H]2O[C@H]12 as the entry.
-0.702

Tell me its z-score given C=C(/C(=C/C[C@H](OC(C)=O)c1ccc(OCCO)cc1)c1cnc2ccccc2c1)C(C)C as the entry.
-0.416

Tell me its z-score given COCCOC(=O)N1C(=O)[C@@]2(c3cc(C#CCNC(N)=O)ccc31)[C@H](c1ccccc1OCCO)N1[C@H](c3ccccc3)[C@H](c3ccccc3)OC(=O)[C@H]1[C@@H]2C(=O)N1CCN(c2ncccn2)CC1 as the entry.
-0.847

Tell me its z-score given CC(=O)OC[C@H]1O[C@H](CCON=C(C)CCC(=O)OC[C@H]2O[C@H](C#Cc3ccccc3)C=C[C@@H]2Oc2ccc(C)cc2)C=C[C@@H]1OC(C)=O as the entry.
-0.199

###

Test system: wheat germ agglutinin (Triticum aestivum), Alexa647-labelled
Assay notes: wheat germ agglutinin binders on compound microarrays, profiling panel, artefact control for SMM control-protein annotation, biochemical, small-molecule microarray, 635/667 nm fluorescence (AID 1140);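 further: score merges 667 nm feature emission with signal to noise over triplicate slides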
Assay setup: WGA-A647 binding, 635 nm fluorescence, higher = more signal
Overview of reported composite z-score across a group of compounds:
Please respond with just the number, no unit label.

Worked cases, composite z-score given:
C=C(/C(=C/C[C@H](OC(C)=O)c1ccc(OCCO)cc1)c1cnc2ccccc2c1)C(C)C ... 0.585
CC(C)=CCCC(C)=CCON=C1[C@H]2CCn3c(=O)n(C)c(=O)n3[C@H]2[C@H](O)[C@@H]2O[C@H]12 ... 0.115
C#CCCCON=C1C[C@@H](O)[C@@H](O)[C@@H]2[C@@H]3C(=O)N([C@@H](C)c4ccccc4)C(=O)[C@@H]3CC[C@H]12 ... 0.203

Tell me its composite z-score given CC(=O)OC[C@H]1O[C@@H](ON=C[C@@H](C)[C@H](OCc2ccccc2)C(C)C)[C@H](OC(C)=O)[C@@H](OC(C)=O)[C@@H]1OC(C)=O as the entry.
-0.0716

Tell me its composite z-score given CCN1C(=O)[C@H]2[C@H]3[C@H](O)C=CC(=O)[C@@H]3CC[C@H]2C1=O as the entry.
0.295

Tell me its composite z-score given CCN1C(=O)[C@H]2[C@H]3[C@H](O)[C@H](O)CC(=NOC[C@@H](C)[C@H](OCc4ccccc4)C(C)C)[C@@H]3CC[C@H]2C1=O as the entry.
0.564

Tell me its composite z-score given COC(=O)[C@H](C)NC(=O)CCC1CC(OC(=O)NCCc2ccc(F)cc2)CC2(CCCC(COC(=O)NCC(c3ccccc3)c3ccccc3)O2)O1 (some centres not stated) as the entry.
0.958
